- ASSAY: qHTS assay to identify small molecule antagonists of the sonic hedgehog signaling (Shh) pathway (AID 1259369); note: nearly all actives have a fitted effect of over 45% in size
- CONDITION: NIH/3T3 Gli1-Luc reporter, Shh antagonist, luminescence 24 h; series mostly up to 92.4 µM
Results filed as inconclusive are left out. Active and inactive are the calls of the source. Calls come from the whole dose curve.
Lab note: assign the record to one of active, inactive

Below, 5 compounds whose answers are already recorded.
Qu. What was the test verdict on Cc1ncc([N+](=O)[O-])n1C ?
Ans. inactive

Qu. What was the test verdict on CC1(C)O[C@@H]2C[C@H]3[C@@H]4CCC5=CC(=O)C=C[C@]5(C)[C@@]4(F)[C@@H](O)C[C@]3(C)[C@]2(C(=O)CO)O1 ?
Ans. inactive

Qu. What was the test verdict on NC(=O)c1cccnc1 ?
Ans. inactive

Qu. What was the test verdict on COc1ccc(C(Cl)=C(c2ccc(OC)cc2)c2ccc(OC)cc2)cc1 ?
Ans. inactive

Qu. What was the test verdict on CN(N=O)C(=O)N[C@@H]1[C@@H](O)[C@H](O)[C@@H](CO)O[C@@H]1O ?
Ans. inactive

Further cases:
Qu. What was the test verdict on Nc1ccc(S(N)(=O)=O)cc1 ?
Ans. inactive

Qu. What was the test verdict on CCCc1cc(=O)[nH]c(=S)[nH]1 ?
Ans. inactive

Qu. What was the test verdict on CCCCC(CC)C(=O)O (stereo unspecified) ?
Ans. inactive

Qu. What was the test verdict on C[C@](N)(Cc1ccc(O)c(O)c1)C(=O)O ?
Ans. inactive

Qu. What was the test verdict on Nc1ccc(O)c([N+](=O)[O-])c1 ?
Ans. active

----------
- ASSAY: qHTS assay to identify small molecule antagonists of the peroxisome proliferator-activated receptor gamma (PPARg) signaling pathway - cell viability counter screen (AID 743194); note: nearly all actives have a fitted effect of over 55% in size
- CONDITION: PPARg-bla HEK293H viability, CellTiter-Glo luminescence, 17 h, co-treated with 50 nM rosiglitazone; series mostly up to 62.6 µM
Records with an inconclusive call do not appear. The source made the active and inactive calls. The call rests on the fitted dose curve; in most records, active means well fitted cell-killing curve with a large enough effect in the repeat runs; inconclusive means weak or mixed curves, or effect the other way; inactive means no such curve, though single readings can be large or run the other way.
Lab note: assign the record to one of y (active), n (inactive)

Below, 3 compounds whose answers are already recorded.
Qu. What was the test verdict on CCCCC1(COC(=O)CCC(=O)O)C(=O)N(c2ccccc2)N(c2ccccc2)C1=O ?
Ans. n

Qu. What was the test verdict on O=C1NC(=O)C(c2ccccc2)(c2ccccc2)N1 ?
Ans. n

Qu. What was the test verdict on O=C(O)CC(O)C(=O)O (configuration not stated) ?
Ans. n

Further cases:
Qu. What was the test verdict on C=C1CC[C@H](O)C/C1=C\C=C1/CCC[C@]2(C)[C@@H]([C@H](C)CCCC(C)C)CC[C@@H]12 ?
Ans. y

Qu. What was the test verdict on CC(C)NCC(O)c1ccc(O)c(O)c1 (configuration not stated) ?
Ans. n

----------
- ASSAY: qHTS assay for small molecule disruptors of the mitochondrial membrane potential - cell viability (AID 720634);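 note: human HepG2 liver cancer cells; nearly all actives have a fitted effect of over 20% in size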
- CONDITION: HepG2 viability, ATP luminescence (CellTiter-Glo), 1 h; series mostly up to 83.2 µM
Inconclusive results are not listed. Activity calls are given as the source filed them. Calls come from the whole dose curve.
PROPERTY MEASURED: outcome

# count of solved cases: 5
Recorded outcome (compound CC(O)(P(=O)(O)O)P(=O)(O)O ): inactive

Recorded outcome (compound Cc1cc(C)nc(NS(=O)(=O)c2ccc(N)cc2)n1 ): inactive

Recorded outcome (compound O=c1[nH]cnc2c1ncn2[C@H]1CC[C@@H](CO)O1 ): inactive

Recorded outcome (compound Cc1c(C(=O)O)c(O)cc2c1C(=O)c1c(O)c([C@@H]3O[C@H](CO)[C@@H](O)[C@H](O)[C@H]3O)c(O)c(O)c1C2=O ): inactive

Recorded outcome (compound CN[C@H]1CC[C@@H](c2ccc(Cl)c(Cl)c2)c2ccccc21 ): inactive

Further cases:
Recorded outcome (compound CS(=O)(=O)OCCCCOS(C)(=O)=O ): inactive

Recorded outcome (compound Cc1ccc(S(=O)(=O)O)cc1 ): inactive

Recorded outcome (compound CN(C)CCOC(C)(c1ccccc1)c1ccccn1 (configuration not stated) ): inactive

Recorded outcome (compound CCCCC(CC)C(=O)O (configuration not stated) ): inactive

Recorded outcome (compound CCOC(N)=O ): inactive

Recorded outcome (compound COc1ccc2c(c1)c(CC(=O)O)c(C)n2C(=O)c1ccc(Cl)cc1 ): inactive

Recorded outcome (compound Nc1c2c(nc3ccccc13)CCCC2 ): inactive
